meta.source: patent US20220380768A1

molecular target: T1, cynomolgus monkey CD22 on B cells of cynomolgus PBMCs (cynomolgus monkey); assay: flow cytometry; Alexa Fluor 647-labelled antibody on CD20+ B cells of cynomolgus PBMCs; also: test concentration or dose not given here
T1 construct: whole, on cells; also called cynomolgus CD22; Cyno CD22
Would you mind telling me the reported CD22 Median Fluorescent Intensity on CD20+ cells of each entry?

Name the reported CD22 Median Fluorescent Intensity on CD20+ cells value associated with the binder TNT80 (antibody, human IgG1, kappa, V domains shown) VH: QVQLQESGPGLVKPSDTLSLTCTVSGFAFSIYDMSWIRQPPGKGLEWIAYISSGGGTTYYNPSLKSRVTISVDTSKNQFSLKLSSVTAADTAVYYCARHSGYGTHWGVLFAYWGRGTLVTVSS VL: DIQMTQSPSSLSASVGDRVTITCRASQSISSYLNWYQQKPGKAPKLLIYAASSLQSGVPSRFSGSGSGTDFTLTISSLQPEDFATYYCQQGNTLPWTFGQGTKLEIKR
159

Name the reported CD22 Median Fluorescent Intensity on CD20+ cells value associated with the binder TNT87 (antibody, human IgG1, kappa, V domains shown) VH: EVQLVESGGGLVQPGGSLRLSCAASGFTFSSYEMNWVRQAPGKGLEWVSYISSSGSTIYYADSVKGRFTISRDNAKNSLYLQMNSLRAEDTAVYYCARHSGYGTHWGVLFAYWGRGTLVTVSS VL: DIVMTQTPLSLSVTPGQPASISCRASQDIHGYLNWYQQKPGQSPQLLIYYTSILHSGVPDRFSGSGSGTDFTLKISRVEAEDVGVYFCQQGNTLPWTFGGGTKLEIKR
1370

Name the reported CD22 Median Fluorescent Intensity on CD20+ cells value associated with the binder TNT79 (antibody, human IgG1, kappa, V domains shown) VH: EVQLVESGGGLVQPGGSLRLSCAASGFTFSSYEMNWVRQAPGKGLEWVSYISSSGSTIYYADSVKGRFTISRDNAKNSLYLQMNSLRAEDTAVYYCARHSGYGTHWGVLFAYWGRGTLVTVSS VL: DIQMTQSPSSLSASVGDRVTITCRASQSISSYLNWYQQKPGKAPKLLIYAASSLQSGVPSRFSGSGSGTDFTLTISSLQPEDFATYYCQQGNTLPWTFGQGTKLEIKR
349
